The entries below come with measured IC50 values attached.
- measured.on: cAMP-dependent protein kinase (PKA) (Homo sapiens, UniProt P22694+P17612+P22612)
- experimental.protocol: Inhibition of Protein Kinase A
- Assay type: protein assay
outcome.measure: IC50 (µM)

# molecule, op, assay.value
measured = [
    ("O=C(NC1CNC[C@@H]1OC(=O)c1cc(O)c(C(=O)c2c(O)cccc2C(=O)O)c(O)c1)c1ccc(O)cc1 (mixture of isomers)", "=", 0.07),
    ("O=C(NC1CN2CCC(CC2)C1OC(=O)c1cc(O)c(C(=O)c2c(O)cccc2C(=O)O)c(O)c1)c1ccc(O)cc1 (stereo in doubt; syn)", ">", 50),
    ("O=C(NC1CN2CCC(CC2)C1OC(=O)c1cc(O)c(C(=O)c2c(O)cccc2C(=O)O)c(O)c1)c1ccc(O)cc1 (stereo in doubt; anti)", "=", 2),
]
